Record form. Attribute: activation. Fill in for each entry.
- protocol_notes: qHTS assay for environmental chemicals that activate the Aryl hydrocarbon Receptor (AhR) signaling pathway (AID 651777); further: % of control where 0% means no effect; nearly all actives have a fitted effect of over 15% in size
- condition_summary: 1A2-DRE human hepatoma cells, luciferase, 24 h; hits give high values
Inconclusive results are not listed.
Answers are plain numbers, in %.

Below, 3 molecules whose answers are already recorded.
molecule: COC(OC)(C(=O)c1ccccc1)c1ccccc1
activation, %: 1.33
//
molecule: C[C@]12CCC(=O)C=C1CC[C@@H]1[C@@H]2[C@@H](O)C[C@]2(C=O)[C@@H](C(=O)CO)CC[C@@H]12
activation, %: -0.37
//
molecule: O=S(=O)(O)c1ccc(N=Nc2c(O)ccc3cc(S(=O)(=O)O)ccc23)cc1
activation, %: -1.77

Hello, I would appreciate it if you could give activation for each entry below.
1. CCCCCCCCCCCCCCCCCCN
2. CCCCCCCCCCCCN
3. CCCCCCCC1CCC(=O)O1 (stereo not given)
4. O=C1NC(=O)C(Cc2ccc(OCCN3COc4ccccc4C3=O)cc2)S1 (stereo not given)

1. 0.284
2. -1.22
3. 4.53
4. 13.4

// each listed molecule needs a value for activation
1. CCCCCCCCCCCC[N+](C)(C)C
2. C=C(C)C(=O)OCCC[Si](Cl)(Cl)Cl
3. O=C(O)CN(CCO)CCN(CC(=O)O)CC(=O)O

[9.5, -0.113, -0.73]

Look up activation for the entries below, preserving their order.
1. COC(=O)c1ccc(I)cc1S(=O)(=O)NC(=O)Nc1nc(C)nc(OC)n1
2. CS/C(=N\O)C(=O)N(C)C
3. NNS(=O)(=O)c1ccc(Oc2ccc(S(=O)(=O)NN)cc2)cc1

1: 2.67; 2: -0.34; 3: 0.263

For every record below, what is its activation?
1. CCOC(=O)c1ccccc1C
2. C[Si](C)(Cl)[Si](C)(C)Cl
3. CCCCC/C=C\C/C=C\CCCCCCCC(=O)OC
4. CCCCOC(=O)/C=C\C(=O)OCCCC
5. CCCCCCCC[Si](OCC)(OCC)OCC

1: -0.718; 2: -0.723; 3: 1.77; 4: 0.228; 5: 0.203

----------
- system: Cytochrome P450 2C9 (Homo sapiens) (UniProt P11712)
- Sequence (P11712 whole entry, looked up): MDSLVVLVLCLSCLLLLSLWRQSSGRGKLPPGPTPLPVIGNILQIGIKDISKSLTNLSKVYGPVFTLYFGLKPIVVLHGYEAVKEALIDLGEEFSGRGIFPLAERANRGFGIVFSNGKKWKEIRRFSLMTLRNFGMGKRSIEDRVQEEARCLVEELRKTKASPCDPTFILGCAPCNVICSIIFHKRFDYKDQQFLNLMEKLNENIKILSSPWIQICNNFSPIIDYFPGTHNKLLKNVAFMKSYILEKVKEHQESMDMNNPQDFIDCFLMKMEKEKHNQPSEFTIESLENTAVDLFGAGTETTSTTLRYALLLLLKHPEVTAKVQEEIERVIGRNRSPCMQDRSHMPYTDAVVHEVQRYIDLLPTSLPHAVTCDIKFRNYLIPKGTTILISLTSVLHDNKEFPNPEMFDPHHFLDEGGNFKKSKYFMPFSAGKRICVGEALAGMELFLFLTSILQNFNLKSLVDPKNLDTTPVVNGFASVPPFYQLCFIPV
- protocol_notes: qHTS Assay for Inhibitors and Substrates of Cytochrome P450 2C9 (AID 883); further: nearly all actives have a fitted effect of over 60% in size
- condition_summary: recombinant CYP2C9, luciferin-H luminescence, 60 min; series mostly up to 11.4 µM
Results filed as inconclusive are left out. The source made the active and inactive calls. The call rests on the fitted dose curve; in most records, active means well fitted inhibition curve with a large enough effect; inconclusive means small, poorly fitted or top-dose-only effect; inactive means no such curve, though single readings can be large or run the other way.
Hi there, use one of these labels in your reply, thanks! 1 for active, 0 for inactive

Some solved entries appear below for comparison.
compound: O=C1C2Cc3c([nH]c4ccccc34)C(c3ccccc3)N2C(=O)C2Cc3c([nH]c4ccccc34)C(c3ccccc3)N12 (centres undefined)
label_value: 0

compound: CC(=O)Nc1ccc(C2NC(C(=O)O)CCC2C)cc1 (centres undefined)
label_value: 0

compound: COc1ccc(/C=C/C(=O)c2ccc(OC)cc2O)cc1
label_value: 0

compound: COC(=O)[C@@]1(Cc2ccc(F)cc2)[C@H]2c3cc(C(=O)N4CCCC4)n(CCc4c[nH]c5ccc(OC)cc45)c3C[C@H]2CN1C(=O)c1ccccc1
label_value: 1

compound: CCCc1cc2c(c(=O)o1)C(O)C1OC1C2=O (centres undefined)
label_value: 0

State the result this test recorded for COc1ccc(/C=C/NC(=O)c2ccc(OC)cc2)cc1 .
0

Call for entry CC(=O)OCC1OC(c2cc(C)cc(C)c2)C=CC1OC(C)=O (centres undefined) :
0
